// provenance: patent EP0747380B1

System: uterus
protocol notes: Uterine wet weight, post-menopausal (OVX) rat model, four day dosing regimen
Assay type: in vivo, female Sprague Dawley rats
cond: Dose 1 mg/kg, oral, daily for 4 days, OVX rats; * = significantly different than OVX control
Items are presented alongside their recorded Uterine Weight (% inc. OVX).

{"mol smiles": "O=C(c1ccc(OCCN2C(=O)CCC2=O)cc1)c1c(-c2ccc(O)cc2)sc2cc(O)ccc12", "Uterine Weight (% inc. OVX) [%]": 7.2}
{"mol smiles": "O=C(c1ccc(OCCN2CCCCC2=O)cc1)c1c(-c2ccc(O)cc2)sc2cc(O)ccc12", "Uterine Weight (% inc. OVX) [%]": 17.8}
{"mol smiles": "O=C(NCCOc1ccc(C(=O)c2c(-c3ccc(O)cc3)sc3cc(O)ccc23)cc1)NC1CCCCC1", "Uterine Weight (% inc. OVX) [%]": -27.4}
{"mol smiles": "CC(C)(C)C(=O)N1CCC(Oc2ccc(C(=O)c3c(-c4ccc(O)cc4)sc4cc(O)ccc34)cc2)CC1", "Uterine Weight (% inc. OVX) [%]": 0.8}
{"mol smiles": "CN(C)C(=O)COc1ccc(C(=O)c2c(-c3ccc(O)cc3)sc3cc(O)ccc23)cc1", "Uterine Weight (% inc. OVX) [%]": 15.4}
{"mol smiles": "CCCCN(C)C(=O)COc1ccc(C(=O)c2c(-c3ccc(O)cc3)sc3cc(O)ccc23)cc1", "Uterine Weight (% inc. OVX) [%]": -6.7}
{"mol smiles": "COc1ccc(-c2sc3cc(OC)ccc3c2C(=O)c2ccc(OCC(=O)N3CCCCC3)cc2)cc1", "Uterine Weight (% inc. OVX) [%]": -16.2}
{"mol smiles": "O=C(c1ccc(OCC(=O)N2CCCCC2)cc1)c1c(-c2ccc(O)cc2)sc2cc(O)ccc12", "Uterine Weight (% inc. OVX) [%]": 6.5}
{"mol smiles": "O=C(c1ccc(OCCN2CCCC2=O)cc1)c1c(-c2ccc(O)cc2)sc2cc(O)ccc12", "Uterine Weight (% inc. OVX) [%]": 15.4}
{"mol smiles": "N#CCOc1ccc(C(=O)c2c(-c3ccc(O)cc3)sc3cc(O)ccc23)cc1", "Uterine Weight (% inc. OVX) [%]": 14.6}
